Organism: Rattus norvegicus
Test: H3 agonistic activity against K+ induced histamine in slices of rat brain cortex.
Format: functional
assay readout: EC50 (nM)
Numbers only, in nM.

// field: EC50; key: C[C@@H](N)[C@@H](C)c1c[nH]cn1 (relative stereo) ; value = 190

----------
Test: Kinetic constant Km value of the enzyme
Assay type: ADME
assay readout: Km (nM)
Give bare numbers, in nM.

// field: Km; key: Br.Br.C[C@H](N)[C@H](C)c1c[nH]cn1 ; value = 2800

From: ChEMBL document CHEMBL1125369
